test: qHTS Assay for Lipid Storage Modulators in Drosophila S3 Cells; details: BODIPY lipid droplet fluorescence, 18-24 h, cells fed with added oleic acid; measured here: cell count max response;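 note: cells counted by Cell Tracker Red CMTPX staining in the red channel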
Out of some 320,000 compounds screened, about 2,100 (0.66%) were called active. Roughly 53% stayed inconclusive and do not appear here. The sample holds actives, similar compounds and a random draw of the others, so the mix is not that of the screen.
valueKind: cell number change (%)
Give your result in % as a bare value.

Ask: For the compound "Cc1ccc(NS(=O)(=O)c2ccc3c(c2)oc(=O)n3C)cc1C" , what cell number change is on record?
Result: 5.19

Ask: Param item: "CCOc1c2c(nc3ccc(Cl)cc13)CCC2"
Result: 8.32

Ask: Param item: "Cc1cc(C)cc(NC(=O)/C=C/c2ccc([N+](=O)[O-])s2)c1"
Result: -13.6

Ask: Param item: "Cc1cc(Br)cc(C)c1NC(=O)c1ccc(C#N)cc1F"
Result: 3.82

Ask: Param item: "Cc1cccc(NC(=O)/C=C/c2ccc([N+](=O)[O-])s2)c1"
Result: -28.2

Ask: Param item: "CCN1CCN(Cc2ccc(NC(=O)c3ccc(C)c(/C=C/c4cnc(Nc5cc(N6CCNCC6)nc(C)n5)cn4)c3)cc2C(F)(F)F)CC1"
Result: -17.2

Ask: Param item: "CC(=O)c1cccc(NC(=O)/C=C/c2ccc([N+](=O)[O-])s2)c1"
Result: -6.6

Ask: Param item: OC(COc1ccc(C2C=CCC2)cc1)CN1CCCCC1 (stereo not drawn)
Result: 1.19

Ask: Param item: "COc1cccc(CNC(=O)CCl)c1"
Result: 5.99

Ask: Param item: OC(COc1ccc(OCC(O)CN2CCCCCC2)cc1)CN1CCCCCC1 (stereo not drawn)
Result: -8.16

Ask: Param item: "CN(C)C(=O)c1c2c(nc3ccccc13)CCCC2"
Result: 1.75

Ask: Param item: "COCCn1c(=O)[nH]c2cc(C(=O)NC(C)C)ccc2c1=O"
Result: 2.66

Ask: Param item: "Cc1cccc2c(C(=O)O)c3c(nc12)CCCCC3"
Result: -17

Ask: Param item: "COc1ccc(S(=O)(=O)Nc2ccccc2N2CCOCC2)cc1[N+](=O)[O-]"
Result: 0.857

Ask: Param item: "Nc1[nH]ncc1C(=O)Nc1cccc(C(F)(F)F)c1"
Result: -8.81

Ask: Param item: "COc1cccc(CNC(=O)COC(=O)c2nc(Cl)c(Cl)c(Cl)c2Cl)c1"
Result: -29.4

Ask: Param item: "Cc1ccc(-c2nc(NC(=O)c3nn(C)cc3[N+](=O)[O-])sc2C)cc1"
Result: 27.2

Ask: Param item: "O=C(Cc1ncc(C(F)(F)F)cc1Cl)NNc1cccc(F)n1"
Result: 2.59

Ask: Param item: "CCN(c1ccccc1)S(=O)(=O)c1cc(NC(=O)COC(=O)C2CC2)ccc1Cl"
Result: 6.19

Ask: Param item: "CN(C)CCOCCOc1ccccc1-c1ccccc1"
Result: -9.8

Ask: Param item: Cc1nc2ncnn2c(C)c1CCC(=O)NC(C)CCc1ccco1 (stereo not drawn)
Result: -25.3

Ask: Param item: "Cc1cc(Br)c2nc3c(c(C(=O)O)c2c1)CCCCC3"
Result: -0.276

Ask: Param item: "Cc1ccccc1NC(=O)/C=C/c1ccc([N+](=O)[O-])s1"
Result: -29.7
